species: Homo sapiens; assay: Selectivity index, ratio of IC50 for human MAO-A to IC50 for human MAO-B
assay.endpoint: Ratio IC50

In: Request the reported Ratio IC50 associated with "Oc1ccc(Br)cc1/C=N/c1ccc(OCc2ccccc2)cc1"
Out: > 3.15

In: Request the reported Ratio IC50 associated with "Oc1ccc(F)cc1/C=N/c1ccc(OCc2ccccc2)cc1"
Out: > 6.54

In: Request the reported Ratio IC50 associated with "Oc1ccc(/C=N/c2ccc(OCc3ccccc3)cc2)c(O)c1"
Out: > 14.8

In: Request the reported Ratio IC50 associated with "Oc1cc(O)c(/C=N/c2ccc(OCc3ccccc3)cc2)c(O)c1"
Out: > 9.86

In: Request the reported Ratio IC50 associated with "Cc1cccc(/C=N/c2ccc(OCc3ccccc3)cc2)c1O"
Out: > 6.47

In: Request the reported Ratio IC50 associated with "Oc1ccc(O)c(/C=N/c2ccc(OCc3ccccc3)cc2)c1"
Out: 15.3

In: Request the reported Ratio IC50 associated with "Oc1ccccc1/C=N/c1ccc(OCc2ccccc2)cc1"
Out: > 3.98

In: Request the reported Ratio IC50 associated with "Oc1c(Br)cc(Br)cc1/C=N/c1ccc(OCc2ccccc2)cc1"
Out: > 9.23

In: Request the reported Ratio IC50 associated with "Oc1ccc(/C=N/c2ccc(OCc3ccccc3)cc2)c(O)c1O"
Out: > 57.8

In: Request the reported Ratio IC50 associated with "Cc1ccc(/C=N/c2ccc(OCc3ccccc3)cc2)c(O)c1"
Out: > 4.09

In: Request the reported Ratio IC50 associated with "COc1cccc(/C=N/c2ccc(OCc3ccccc3)cc2)c1O"
Out: > 15.4

In: Request the reported Ratio IC50 associated with "COc1ccc(O)c(/C=N/c2ccc(OCc3ccccc3)cc2)c1"
Out: > 9.34

In: Request the reported Ratio IC50 associated with "Cc1ccc(O)c(/C=N/c2ccc(OCc3ccccc3)cc2)c1"
Out: > 4.06

In: Request the reported Ratio IC50 associated with "COc1ccc(/C=N/c2ccc(OCc3ccccc3)cc2)c(O)c1"
Out: > 4.24

In: Request the reported Ratio IC50 associated with "Oc1ccc(Cl)cc1/C=N/c1ccc(OCc2ccccc2)cc1"
Out: > 4.03

In: Request the reported Ratio IC50 associated with "Oc1cccc(/C=N/c2ccc(OCc3ccccc3)cc2)c1O"
Out: 1.66

In: Request the reported Ratio IC50 associated with "O=[N+]([O-])c1ccc(O)c(/C=N/c2ccc(OCc3ccccc3)cc2)c1"
Out: > 1.64

In: Request the reported Ratio IC50 associated with "Oc1ccc2ccccc2c1/C=N/c1ccc(OCc2ccccc2)cc1"
Out: > 5.22

###

Target: Amine oxidase [flavin-containing] B (Homo sapiens, UniProt P27338)
Sequence (P27338 whole entry): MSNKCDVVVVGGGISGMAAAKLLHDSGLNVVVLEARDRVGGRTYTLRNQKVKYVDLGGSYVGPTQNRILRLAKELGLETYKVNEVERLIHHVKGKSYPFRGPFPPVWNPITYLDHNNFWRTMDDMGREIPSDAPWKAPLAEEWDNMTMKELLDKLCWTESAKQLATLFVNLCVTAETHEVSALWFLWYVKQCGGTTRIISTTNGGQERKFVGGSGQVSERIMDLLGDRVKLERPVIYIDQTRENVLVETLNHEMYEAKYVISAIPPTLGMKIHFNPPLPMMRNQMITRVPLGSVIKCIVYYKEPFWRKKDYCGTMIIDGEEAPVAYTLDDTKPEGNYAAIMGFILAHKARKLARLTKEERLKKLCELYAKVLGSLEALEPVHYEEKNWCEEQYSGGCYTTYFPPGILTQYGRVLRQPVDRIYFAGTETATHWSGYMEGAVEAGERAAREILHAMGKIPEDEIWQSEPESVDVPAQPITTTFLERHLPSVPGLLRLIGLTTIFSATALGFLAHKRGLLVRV
Sorting guide: entries reporting IC50 beneath 20 µM go in the Criterion met pile, the rest go in the Criterion not met pile.

In: Say whether its IC50 is strictly beneath 20 µM. Entry: "Oc1ccc(Br)cc1/C=N/c1ccc(OCc2ccccc2)cc1"
Out: Criterion not met

In: Say whether its IC50 is strictly beneath 20 µM. Entry: "Oc1ccc(F)cc1/C=N/c1ccc(OCc2ccccc2)cc1"
Out: Criterion met

In: Say whether its IC50 is strictly beneath 20 µM. Entry: "Oc1ccc2ccccc2c1/C=N/c1ccc(OCc2ccccc2)cc1"
Out: Criterion met

In: Say whether its IC50 is strictly beneath 20 µM. Entry: "Oc1c(Br)cc(Br)cc1/C=N/c1ccc(OCc2ccccc2)cc1"
Out: Criterion met

In: Say whether its IC50 is strictly beneath 20 µM. Entry: "Cc1ccc(/C=N/c2ccc(OCc3ccccc3)cc2)c(O)c1"
Out: Criterion not met

In: Say whether its IC50 is strictly beneath 20 µM. Entry: "Oc1cccc(/C=N/c2ccc(OCc3ccccc3)cc2)c1O"
Out: Criterion met

###

target: Amyloid-beta precursor protein (Homo sapiens); assay: Inhibition of self-induced aggregation of amyloid beta (1 to 42 residues) (unknown origin) at 25 uM incubated for 48 hrs by Thioflavin T fluorescence assay relative to control
We use 60% as the dividing line for inhibition: on or above the line is satisfied, below is not satisfied.

In: Quick check: does "Oc1ccccc1/C=N/c1ccc(OCc2ccccc2)cc1" have inhibition greater than or equal to 60%?
Out: satisfied

In: Quick check: does "Cc1ccc(O)c(/C=N/c2ccc(OCc3ccccc3)cc2)c1" have inhibition greater than or equal to 60%?
Out: satisfied

In: Quick check: does "Oc1cc(O)c(/C=N/c2ccc(OCc3ccccc3)cc2)c(O)c1" have inhibition greater than or equal to 60%?
Out: satisfied

In: Quick check: does "Oc1ccc(/C=N/c2ccc(OCc3ccccc3)cc2)c(O)c1O" have inhibition greater than or equal to 60%?
Out: satisfied

In: Quick check: does "Cc1cccc(/C=N/c2ccc(OCc3ccccc3)cc2)c1O" have inhibition greater than or equal to 60%?
Out: not satisfied

###

biological target: UniProt:P21397; test: Inhibition of human MAO-A at 200 uM using p-tyramine as substrate preincubated for 15 mins followed by substrate addition measured after 20 mins by fluorescence-based Amplex Red MAO assay
Sequence (P21397 whole entry): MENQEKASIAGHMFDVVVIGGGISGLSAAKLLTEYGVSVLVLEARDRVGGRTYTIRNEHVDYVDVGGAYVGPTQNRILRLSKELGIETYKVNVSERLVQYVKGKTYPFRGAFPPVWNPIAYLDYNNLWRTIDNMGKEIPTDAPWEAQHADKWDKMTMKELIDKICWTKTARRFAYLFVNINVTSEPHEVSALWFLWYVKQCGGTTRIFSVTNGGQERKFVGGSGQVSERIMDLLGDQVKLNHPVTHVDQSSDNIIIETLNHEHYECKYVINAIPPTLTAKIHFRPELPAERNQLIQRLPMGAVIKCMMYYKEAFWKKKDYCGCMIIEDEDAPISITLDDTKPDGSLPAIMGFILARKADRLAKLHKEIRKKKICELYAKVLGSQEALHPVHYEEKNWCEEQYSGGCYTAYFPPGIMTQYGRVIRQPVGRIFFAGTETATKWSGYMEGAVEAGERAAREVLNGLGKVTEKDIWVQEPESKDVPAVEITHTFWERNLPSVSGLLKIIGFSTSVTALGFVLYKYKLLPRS
assay.endpoint: inhibition (INH)

Solved entries (count: 5):
input.smiles: COc1ccc(/C=N/c2ccc(OCc3ccccc3)cc2)c(O)c1
inhibition (INH): Not Active
--
input.smiles: Oc1c(Br)cc(Br)cc1/C=N/c1ccc(OCc2ccccc2)cc1
inhibition (INH): Not Active
--
input.smiles: Oc1ccc(/C=N/c2ccc(OCc3ccccc3)cc2)c(O)c1O
inhibition (INH): Not Active
--
input.smiles: Cc1ccc(O)c(/C=N/c2ccc(OCc3ccccc3)cc2)c1
inhibition (INH): Not Active
--
input.smiles: COc1ccc(O)c(/C=N/c2ccc(OCc3ccccc3)cc2)c1
inhibition (INH): Not Active

In: Request the reported inhibition (INH) associated with "Oc1ccc(F)cc1/C=N/c1ccc(OCc2ccccc2)cc1"
Out: Not Active

In: Request the reported inhibition (INH) associated with "O=[N+]([O-])c1ccc(O)c(/C=N/c2ccc(OCc3ccccc3)cc2)c1"
Out: Not Active

In: Request the reported inhibition (INH) associated with "Cc1cccc(/C=N/c2ccc(OCc3ccccc3)cc2)c1O"
Out: Not Active

In: Request the reported inhibition (INH) associated with "Oc1ccc(Cl)cc1/C=N/c1ccc(OCc2ccccc2)cc1"
Out: Not Active

In: Request the reported inhibition (INH) associated with "Oc1ccc2ccccc2c1/C=N/c1ccc(OCc2ccccc2)cc1"
Out: Not Active

In: Request the reported inhibition (INH) associated with "COc1cccc(/C=N/c2ccc(OCc3ccccc3)cc2)c1O"
Out: Not Active

###

molecular target: Amine oxidase [flavin-containing] B (Homo sapiens, UniProt P27338); experiment: Inhibition of human MAO-B using p-tyramine as substrate preincubated for 15 mins followed by substrate addition measured after 20 mins by fluorescence-based Amplex Red MAO assay
Sorting guide: entries reporting IC50 beneath 20 µM go in the label 1 pile, the rest go in the label 0 pile.

In: Say whether its IC50 is strictly beneath 20 µM. Entry: "Cc1ccc(O)c(/C=N/c2ccc(OCc3ccccc3)cc2)c1"
Out: label 0

In: Say whether its IC50 is strictly beneath 20 µM. Entry: "COc1cccc(/C=N/c2ccc(OCc3ccccc3)cc2)c1O"
Out: label 1

In: Say whether its IC50 is strictly beneath 20 µM. Entry: "Oc1ccc(Cl)cc1/C=N/c1ccc(OCc2ccccc2)cc1"
Out: label 0

In: Say whether its IC50 is strictly beneath 20 µM. Entry: "Cc1cccc(/C=N/c2ccc(OCc3ccccc3)cc2)c1O"
Out: label 1

In: Say whether its IC50 is strictly beneath 20 µM. Entry: "Oc1ccc(/C=N/c2ccc(OCc3ccccc3)cc2)c(O)c1"
Out: label 1

###

target: UniProt P05067; experiment: Inhibition of self-induced aggregation of amyloid beta (1 to 42 residues) (unknown origin) at 25 uM incubated for 48 hrs by Thioflavin T fluorescence assay relative to control
Sequence (P05067 whole entry, the tested form may be a part): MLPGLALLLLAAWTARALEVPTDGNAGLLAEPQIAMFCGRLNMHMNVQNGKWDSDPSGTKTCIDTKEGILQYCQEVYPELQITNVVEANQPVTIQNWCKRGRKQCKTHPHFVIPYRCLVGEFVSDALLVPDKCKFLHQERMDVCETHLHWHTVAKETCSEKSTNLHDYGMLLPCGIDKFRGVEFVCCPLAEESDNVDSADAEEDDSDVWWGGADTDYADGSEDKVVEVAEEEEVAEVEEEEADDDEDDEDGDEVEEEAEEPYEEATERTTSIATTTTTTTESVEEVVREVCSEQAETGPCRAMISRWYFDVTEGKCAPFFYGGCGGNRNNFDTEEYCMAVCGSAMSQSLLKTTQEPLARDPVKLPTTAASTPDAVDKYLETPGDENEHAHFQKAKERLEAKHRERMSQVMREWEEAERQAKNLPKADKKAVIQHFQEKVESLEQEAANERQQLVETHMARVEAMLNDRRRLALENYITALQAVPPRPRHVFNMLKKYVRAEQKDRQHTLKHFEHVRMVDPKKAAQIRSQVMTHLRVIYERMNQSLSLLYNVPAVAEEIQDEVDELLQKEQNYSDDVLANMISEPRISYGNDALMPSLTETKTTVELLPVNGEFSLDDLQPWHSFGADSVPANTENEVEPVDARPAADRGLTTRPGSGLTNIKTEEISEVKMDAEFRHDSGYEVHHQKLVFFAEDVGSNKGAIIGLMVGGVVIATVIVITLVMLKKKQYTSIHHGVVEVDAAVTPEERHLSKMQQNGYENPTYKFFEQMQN
We use 70% as the dividing line for inhibition: on or above the line is 1.0, below is 0.0.

In: Quick check: does "Oc1cccc(/C=N/c2ccc(OCc3ccccc3)cc2)c1O" have inhibition greater than or equal to 70%?
Out: 1.0

In: Quick check: does "Oc1ccc(O)c(/C=N/c2ccc(OCc3ccccc3)cc2)c1" have inhibition greater than or equal to 70%?
Out: 0.0

In: Quick check: does "Oc1ccc(Br)cc1/C=N/c1ccc(OCc2ccccc2)cc1" have inhibition greater than or equal to 70%?
Out: 0.0

In: Quick check: does "Oc1ccc(F)cc1/C=N/c1ccc(OCc2ccccc2)cc1" have inhibition greater than or equal to 70%?
Out: 1.0

In: Quick check: does "COc1cccc(/C=N/c2ccc(OCc3ccccc3)cc2)c1O" have inhibition greater than or equal to 70%?
Out: 0.0

In: Quick check: does "COc1ccc(O)c(/C=N/c2ccc(OCc3ccccc3)cc2)c1" have inhibition greater than or equal to 70%?
Out: 0.0

In: Quick check: does "Oc1ccc2ccccc2c1/C=N/c1ccc(OCc2ccccc2)cc1" have inhibition greater than or equal to 70%?
Out: 1.0

In: Quick check: does "Oc1c(Br)cc(Br)cc1/C=N/c1ccc(OCc2ccccc2)cc1" have inhibition greater than or equal to 70%?
Out: 0.0

In: Quick check: does "Oc1ccc(/C=N/c2ccc(OCc3ccccc3)cc2)c(O)c1" have inhibition greater than or equal to 70%?
Out: 0.0

In: Quick check: does "Cc1ccc(/C=N/c2ccc(OCc3ccccc3)cc2)c(O)c1" have inhibition greater than or equal to 70%?
Out: 0.0
